Tested on: Human immunodeficiency virus 1
Assay: Antiviral activity against HIV1 harboring K103N/Y181C double mutant infected in human MT4 cells assessed as protection of cells from virus-induced cytopathic after 5 days by MTT assay
Format: functional, organism-based
Conditions: Human immunodeficiency virus 1, MT4, 120 h
Quantity measured: EC50

CC(C)Cn1cc(C(=O)O)c(=O)c2ccc(Oc3ccnc(Nc4ccc(C#N)cc4)n3)cc21 :: > 274 µM
CC(C)n1cc(C(=O)O)c(=O)c2ccc(Oc3ccnc(Nc4ccc(C#N)cc4)n3)cc21 :: > 283 µM
N#Cc1ccc(Nc2nccc(Nc3ccc4c(=O)c(C(=O)O)cn(C5CCCCC5)c4c3)n2)cc1 :: > 2.18 µM
CCCCn1cc(C(=O)O)c(=O)c2ccc(Oc3ccnc(Nc4ccc(C#N)cc4)n3)cc21 :: > 199 µM
CCn1cc(C(=O)O)c(=O)c2ccc(Oc3ccnc(Nc4ccc(C#N)cc4)n3)cc21 :: > 246 µM
